# Test system: HT-29
# Protocol Text: NCI tumour cell line growth inhibition, 48 h
Active and inactive are the calls of the source. No stated cut-off is given here; in the data, active = GI50 up to about 1.1 µM and inactive = higher.
Readout Kind: GI50

Example results:
>>> df
                                   molecule  system_tested  readout_kind      endpoint_result
0  CC(C)CC/N=c1/cc2n(-c3ccc(Cl)cc3)c3ccccc3nc-2cc1Nc1ccc(Cl)cc1          HT-29          GI50   2.52 µM (inactive)
1             Cc1cc(-c2nc3cc(F)ccc3s2)ccc1N          HT-29          GI50     29 µM (inactive)
2  COc1ccc(C2(CC(C)C)CCN(S(=O)(=O)c3ccc(C)cc3)C2)cc1OC (stereo not drawn)          HT-29          GI50   35.6 µM (inactive)
3            O=C1CCc2cc([N+](=O)[O-])ccc2O1          HT-29          GI50  > 100 µM (inactive)

Problem: I would be grateful if you could share the reported GI50 for CC(C)[Si](CC1=CCCCC12C(=O)N(COCC[Si](C)(C)C)c1ccccc12)(C(C)C)C(C)C (stereo not drawn) .
Result: 51.6 µM (inactive)

Problem: Cool, now `CC(C)=CCC/C(C)=C/CC/C(C)=C/CCN(C)CCO`
Result: 11.2 µM (inactive)

Problem: Cool, now O=C(c1ccccc1)C(c1ccccc1)C1(O)C(=O)Nc2ccccc21 (stereo not drawn)
Result: > 100 µM (inactive)

Problem: Cool, now CC(=O)OC1(C#N)CC2OC1C1N=NN(C(=O)OC(C)(C)C)C21 (stereo not drawn)
Result: > 100 µM (inactive)

###

# Test system: IGROV-1
# Protocol Text: NCI tumour cell line growth inhibition, 48 h
Calls of active or inactive are those of the source. Cut-off read from the data, not from the text of the source: active = GI50 up to about 1.1 µM and inactive = higher.
Consider the following compounds and their measured GI50 readings.

>>> df
                                   compound      endpoint_result
0  Cn1c(=O)c2c(nc(N)n2C2OC(CO)C(O)C2O)n(C)c1=O (stereo not drawn)  > 100 µM (inactive)
1         CN(C)/N=N/c1ccc2[nH]c(=O)[nH]c2c1  > 100 µM (inactive)

Now for another entry.
Problem: I would be grateful if you could share the reported GI50 for `COc1cc2c(c(OC)c1O)-c1ccc(OC)c(=O)cc1[C@@H](NC(=O)C(F)(F)F)CC2` .
Result: 0.229 µM (active)

###

# System: MDA-N
# Protocol Text: NCI tumour cell line growth inhibition, 48 h
Active and inactive are the calls of the source. Cut-off read from the data, not from the text of the source: active = GI50 up to about 1.1 µM and inactive = higher.
Readout Kind: GI50

Problem: I would be grateful if you could share the reported GI50 for `COc1cc(CN(C)N2C(=O)c3cccc4cc([N+](=O)[O-])cc(c34)C2=O)cc(OC)c1OC` .
Result: > 100 µM (inactive)

Problem: Cool, now CSCCC(NC(=O)C(Cc1c[nH]c2ccccc12)NC(=O)CCNC(=O)OC(C)(C)C)C(=O)NC(CC(=O)O)C(=O)NC(Cc1ccccc1)C(N)=O (stereo not drawn)
Result: > 50 µM (inactive)

Problem: Cool, now `CN(C)CCNc1ccc2nnn3c4ccc(O)cc4c(=O)c1c23`
Result: 1.86 µM (inactive)

###

# System: HOP-92
# Protocol Text: NCI tumour cell line growth inhibition, 48 h
Active and inactive are the calls of the source. Cut-off read from the data, not from the text of the source: active = GI50 up to about 1.1 µM and inactive = higher.
Readout Kind: GI50

>>> print(df.to_string())
                                   compound  system_tested      endpoint_result
0  CCOC(=O)CC1NC(=O)CS1 (stereo unspecified)         HOP-92  > 100 µM (inactive)

Problem: Lab note: need GI50 with HOP-92 for entry CCC1=C(CC2NCCc3ccccc32)CC2c3cc(OC)c(OC)cc3CCN2C1 (stereo unspecified) , please look it up.
Result: 0.675 µM (active)

Problem: Cool, now COc1ccc(CC(CO)NC(=O)OCc2ccccc2)cc1Oc1ccc(CC(CO)NC(=O)OCc2ccccc2)cc1 (stereo unspecified)
Result: 18.3 µM (inactive)

Problem: Cool, now `O=C1C(Sc2ccc3ccccc3c2)=C(Sc2ccc3ccccc3c2)C(=O)c2ccccc21`
Result: 6.64 µM (inactive)

Problem: Cool, now `O=c1oc2c([N+](=O)[O-])cc([N+](=O)[O-])cc2c2ccccc12`
Result: > 100 µM (inactive)

Problem: Cool, now COc1ccc2[nH]c(C(=O)N3CC(CCl)c4c3cc(N)c3ccccc43)cc2c1 (stereo unspecified)
Result: < 0.018 µM (active)

###

# Test system: COLO 205
# Protocol Text: NCI tumour cell line growth inhibition, 48 h
The source made the active and inactive calls. Cut-off read from the data, not from the text of the source: active = GI50 up to about 1.1 µM and inactive = higher.
Consider the following compounds and their measured GI50 readings.

Problem: Lab note: need GI50 with COLO 205 for entry `Oc1ccc2ccccc2c1C(c1ccc(Cl)cc1)c1c(O)ccc2ccccc12` , please look it up.
Result: 2.06 µM (inactive)

Problem: Cool, now CC(C)(C)OC(=O)n1cc(C2CN(O)C(=O)C23CCC(=O)N3Cc2ccccc2)c2ccccc21 (configuration not stated)
Result: 36.1 µM (inactive)

Problem: Cool, now `N#Cc1nc(C2CC2)oc1N`
Result: > 100 µM (inactive)

Problem: Cool, now `CSc1ccc(/C=C2\CNC/C(=C\c3ccc(SC)cc3)C2=O)cc1`
Result: > 371 µM (inactive)

Problem: Cool, now `c1ccc([P+](c2ccccc2)(c2ccccc2)c2ccc([P+](c3ccccc3)(c3ccccc3)c3ccccc3)cc2)cc1`
Result: 20.1 µM (inactive)

Problem: Cool, now OCC1=CC(NC2CC(CO)C(O)C(O)C2O)C(O)C(O)C1O (configuration not stated)
Result: > 100 µM (inactive)

Problem: Cool, now `Cc1nc2c(sc(=S)n2-c2ccccc2)c2nc3ncccc3n12`
Result: > 100 µM (inactive)

###

# Test system: NCI-H23
# Protocol Text: NCI tumour cell line growth inhibition, 48 h
Activity calls are given as the source filed them. No stated cut-off is given here; in the data, active = GI50 up to about 1.1 µM and inactive = higher.
Give one outcome, nothing more. List: active, inactive

Observe how each entry below is paired with its result.
In [3]: df
Out[3]:
                                   compound  assigned_label
0  O=c1[nH]nc(Cc2ccccc2)n1/N=C\CC/C=N\n1c(Cc2ccccc2)n[nH]c1=O        inactive
1                CC(NC(=O)N(C)C)NC(=O)N(C)C        inactive
2  O=C(NCCCN1CCN(CCCNC(=O)Nc2cccc3ccccc23)CC1)Nc1cccc2ccccc12        inactive
3  Cc1nn2c(N)cc(=O)nc2nc1/C=C/c1ccc(N(C)C)cc1        inactive
4  CC[C@@]1(O)C(=O)OCc2c1cc1n(c2=O)Cc2c-1nc1ccc(N)cc1c2CC[Si](C)(C)C          active

Turning to the following compound.
Problem: Which outcome did this test record for the compound CC(C)[Si](CC1=CCCCC12C(=O)N(COCC[Si](C)(C)C)c1ccccc12)(C(C)C)C(C)C (stereo not given) ?
Result: inactive

###

# Tested on: DU-145
# Protocol Text: NCI tumour cell line growth inhibition, 48 h
Calls of active or inactive are those of the source. No stated cut-off is given here; in the data, active = GI50 up to about 1.1 µM and inactive = higher.
Consider the following molecules and their measured GI50 readings.

                        structure_as_smiles  readout_kind      endpoint_result
0  COc1ccc(C(=C(I)c2ccccc2)c2ccc(OC)cc2)cc1          GI50  > 100 µM (inactive)
1  COc1nc(Cl)nc(N[C@H](C)c2c3ccccc3cc3ccccc23)n1          GI50   12.4 µM (inactive)
2  COc1cc(C2=N/C(=C/c3cccs3)C(=O)O2)cc(OC)c1OC          GI50  > 100 µM (inactive)

Now for another entry.
Problem: Lab note: need GI50 with DU-145 for entry `CCOC(=O)Cc1ccc(Nc2nc3ccccc3nc2C(=O)OCC)cc1` , please look it up.
Result: 95.9 µM (inactive)

###

# System: SNB-19
# Protocol Text: NCI tumour cell line growth inhibition, 48 h
Calls of active or inactive are those of the source. Rule as the data show it: active = GI50 up to about 1.1 µM and inactive = higher.
Readout Kind: GI50

Molecule	Endpoint Result
O=C(O)c1nc2ccc(C(F)(F)F)cc2nc1Nc1ccc(F)cc1	> 10 µM (inactive)

Problem: Lab note: need GI50 with SNB-19 for entry `CC(C)=CCC/C(C)=C/CC/C(C)=C/CCN(C)CCO` , please look it up.
Result: 8.07 µM (inactive)

Problem: Cool, now `O=c1cnn(C/C=C/CP(=O)(O)O)c(=O)[nH]1`
Result: > 100 µM (inactive)

Problem: Cool, now COC(=O)NC1C(C)OC(OC2C/C=C(/C)C3C=CC4C(OC5CC(OC6CC(OC7CC(O)C(O)C(C)O7)C(OC7CC(O)C(OC)C(C)O7)C(C)O6)C(O)C(C)O5)C(C)CC(C)C4C3(C)C(=O)C3=C(O)C4(CC(C)C(CO)=CC4/C=C\2C)OC3=O)CC1(C)[N+](=O)[O-] (stereo not drawn)
Result: 21.2 µM (inactive)

Problem: Cool, now `CCOc1cc(/C=N/c2nc3cc4sc(/N=C/c5ccc(O)c(OCC)c5)nc4cc3s2)ccc1O`
Result: > 100 µM (inactive)

Problem: Cool, now CC1(C)C2C=CC1C(=O)CC2 (stereo not drawn)
Result: 15.9 µM (inactive)

Problem: Cool, now `O=c1oc2c([N+](=O)[O-])cc([N+](=O)[O-])cc2c2ccccc12`
Result: > 100 µM (inactive)
